system: Liver microsomes; assay: Drug metabolism in human liver microsomes assessed as glutathione-adduct reactive metabolite formation at 1 mg/ml after 30 mins; format: ADME, Microsome; conditions: 0.5 h
RECORDED_METRIC: Drug metabolism

Some compounds with recorded Drug metabolism:
{"COMPOUND": "CC(C)(C)NC(=O)NCCN1CCC(CNC(=O)c2cc(Cl)cc(Cl)c2)C1 (stereo not given)", "RESULT": "Active"}
{"COMPOUND": "CC(C)(C)NC(=O)NCCN1CCC(CNC(=O)c2cc(Cl)cc(Cl)c2)CC1", "RESULT": "Not Active"}
{"COMPOUND": "CC(C)(C)NC(=O)NCCN1CCC(O)(CNC(=O)c2cc(Cl)cc(Cl)c2)CC1", "RESULT": "Active"}
{"COMPOUND": "CC(C)(C)NC(=O)NCCN1CCCC(CNC(=O)c2cc(Cl)cc(Cl)c2)C1 (stereo not given)", "RESULT": "Not Active"}
{"COMPOUND": "CC(C)(C)NC(=O)NCCN1CC(NC(=O)c2cc(Cl)cc(Cl)c2)C1", "RESULT": "Active"}
{"COMPOUND": "CC(C)(C)NC(=O)NCCN1CCCC(NC(=O)c2cc(Cl)cc(Cl)c2)C1 (stereo not given)", "RESULT": "Active"}
{"COMPOUND": "CC(C)(C)NC(=O)NCCN1CCOC(CNC(=O)c2cc(Cl)cc(Cl)c2)C1 (stereo not given)", "RESULT": "Active"}
{"COMPOUND": "CC(C)(C)NC(=O)NCCN1CCC(NC(=O)c2cc(Cl)cc(Cl)c2)C1 (stereo not given)", "RESULT": "Active"}

q: Which Drug metabolism is reported for this compound? COCC(=O)O[C@]1(CCN(C)CCCc2nc3ccccc3[nH]2)CCc2cc(F)ccc2[C@@H]1C(C)C
a: Active

q: Quick one: CC(C)(C)NC(=O)NCCN1CCC(CO)(CNC(=O)c2cc(Cl)cc(Cl)c2)CC1
a: Not Active

###

assay: Intrinsic clearance in human liver microsomes at 1 mg/ml after 45 mins; format: ADME, Microsome; details: read-out: CLH
Decision: microsomal CLint beneath 30 µL/min/mg gives YES; microsomal CLint meeting or exceeding 30 µL/min/mg gives NO.

q: Answer whether the compound CC(C)(C)NC(=O)NCCN1CCN(CC(=O)NC23CC4CC(CC(C4)C2)C3)CC1 has microsomal CLint strictly less than 30 µL/min/mg
a: NO

q: Quick one: CC(C)(C)NC(=O)NCCN1CCC(CO)(CNC(=O)c2cc(Cl)cc(Cl)c2)CC1
a: YES

q: Quick one: CC(C)(C)NC(=O)NCCN1CCCC(NC(=O)c2cc(Cl)cc(Cl)c2)C1 (configuration not stated)
a: NO

q: Quick one: CC(C)(C)NC(=O)NCCN1CCC(O)(CNC(=O)c2cc(Cl)cc(Cl)c2)CC1
a: YES

q: Quick one: CC(C)(C)NC(=O)NCCN1CCCC(CNC(=O)c2cc(Cl)cc(Cl)c2)C1 (configuration not stated)
a: YES

q: Quick one: CC(C)(C)NC(=O)NCCN1CCC(CNC(=O)c2cc(Cl)cc(Cl)c2)CC1
a: YES

q: Quick one: CC(C)(C)NC(=O)NCCN1CCC(NC(=O)c2cc(Cl)cc(Cl)c2)C1 (configuration not stated)
a: YES

q: Quick one: CC(C)(C)NC(=O)NCCN1CCC(CNC(=O)c2cc(Cl)cc(Cl)c2)C1 (configuration not stated)
a: YES

q: Quick one: CC(C)(C)NC(=O)NCCN1CC(NC(=O)c2cc(Cl)cc(Cl)c2)C1
a: YES

q: Quick one: CC(C)(C)NC(=O)NCCN1CCN(CC(=O)Nc2cc(Cl)cc(Cl)c2)CC1
a: YES

q: Quick one: CC(C)(C)NC(=O)NCCN1CCOC(CNC(=O)c2cc(Cl)cc(Cl)c2)C1 (configuration not stated)
a: NO

q: Quick one: COCC(=O)O[C@]1(CCN(C)CCCc2nc3ccccc3[nH]2)CCc2cc(F)ccc2[C@@H]1C(C)C
a: NO
